- test.system: Serine/threonine-protein kinase N1 (Homo sapiens); note: in the data inactive means no Kd found up to 30 µM
- Sequence (Q16512 whole entry): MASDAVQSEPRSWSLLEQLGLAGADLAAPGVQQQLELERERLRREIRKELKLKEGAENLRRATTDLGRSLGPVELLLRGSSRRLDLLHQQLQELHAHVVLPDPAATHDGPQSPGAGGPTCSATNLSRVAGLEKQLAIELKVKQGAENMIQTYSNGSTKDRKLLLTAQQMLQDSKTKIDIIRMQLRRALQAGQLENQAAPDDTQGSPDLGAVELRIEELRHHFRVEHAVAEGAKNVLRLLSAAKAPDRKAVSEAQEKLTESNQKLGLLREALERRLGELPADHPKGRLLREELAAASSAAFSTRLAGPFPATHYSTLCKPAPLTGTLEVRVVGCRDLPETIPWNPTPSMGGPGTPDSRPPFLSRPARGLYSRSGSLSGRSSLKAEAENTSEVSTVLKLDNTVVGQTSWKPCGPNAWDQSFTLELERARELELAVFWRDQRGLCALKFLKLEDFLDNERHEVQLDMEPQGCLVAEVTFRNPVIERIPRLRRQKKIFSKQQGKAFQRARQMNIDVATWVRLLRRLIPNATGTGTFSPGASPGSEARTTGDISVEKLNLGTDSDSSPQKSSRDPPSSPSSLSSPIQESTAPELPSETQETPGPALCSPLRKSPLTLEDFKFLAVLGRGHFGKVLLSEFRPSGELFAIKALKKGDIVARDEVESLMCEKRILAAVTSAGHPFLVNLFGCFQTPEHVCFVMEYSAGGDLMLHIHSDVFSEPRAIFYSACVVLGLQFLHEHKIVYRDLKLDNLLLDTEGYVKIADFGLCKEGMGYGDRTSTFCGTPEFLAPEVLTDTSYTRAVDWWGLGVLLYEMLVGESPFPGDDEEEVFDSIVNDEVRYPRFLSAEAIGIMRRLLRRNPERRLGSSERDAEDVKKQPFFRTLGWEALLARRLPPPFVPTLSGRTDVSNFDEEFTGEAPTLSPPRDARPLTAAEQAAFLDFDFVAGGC
Calls of active or inactive are those of the source.
Outcome (select one): T = active, F = inactive

Query: Test call for this compound, please: CCN1CCN(Cc2ccc(-c3cc4c(N[C@H](C)c5ccccc5)ncnc4[nH]3)cc2)CC1 [AEE-788]
Response: F

Query: Please state the recorded outcome for this compound: CN1N=C(N)c2cn([C@@H]3O[C@H](COP(=O)(O)O)[C@@H](O)[C@H]3O)c3ncnc1c23 [TRICIRIBINE PHOSPHATE]
Response: F

Query: Recorded test outcome, item CO[C@H]1C[C@@H]2CC[C@@H](C)[C@@](O)(O2)C(=O)C(=O)N2CCCC[C@H]2C(=O)O[C@H]([C@H](C)C[C@@H]2CC[C@@H](OCCO)[C@H](OC)C2)CC(=O)[C@H](C)/C=C(\C)[C@@H](O)[C@@H](OC)C(=O)[C@H](C)C[C@H](C)/C=C/C=C/C=C/1C [EVEROLIMUS]
Response: F

Query: Hi team, can someone confirm the assay call for CN1CCC(CNc2ccc3ncc(-c4cccc(OC(F)(F)F)c4)n3n2)CC1 [SGI-1776] ?
Response: T

Query: Please state the recorded outcome for this compound: COc1ccc(-c2ccc3c(N4CCOC[C@@H]4C)nc(N4CCOC[C@@H]4C)nc3n2)cc1CO [AZD-8055]
Response: F

Query: For CC[C@@H]1C(=O)N(C)c2cnc(Nc3ccc(C(=O)N[C@H]4CC[C@H](N5CCN(CC6CC6)CC5)CC4)cc3OC)nc2N1C(C)C [VOLASERTIB] , which call appears in the assay record?
Response: F

Query: Kindly provide the recorded test outcome for the following compound: O=C(Nc1ccc(-c2ccnc(Nc3ccc(N4CCOCC4)cc3)n2)cc1)C1CCCN1 (stereo unspecified) [XL-019]
Response: F

Query: Status in this test for Cc1cc(-c2cc(O)ccc2Cl)cc2nnc(Nc3ccc(OCCN4CCCC4)cc3)nc12 ?
Response: F

Query: Tell me the recorded outcome of this test for CCS(=O)(=O)N1CC(CC#N)(n2cc(-c3ncnc4[nH]ccc34)cn2)C1 [BARICITINIB] .
Response: T

Query: Kindly provide the recorded test outcome for the following compound: O=C1NC(=O)/C(=C/c2ccc3nccc(-c4ccncc4)c3c2)S1 [GSK-1059615]
Response: F

Query: Hi, sorry to bother you, what did the test record for O=C(Nc1cccc(Cl)c1)Nc1ncc(CCNc2ncnc3ccsc23)s1 [SNS-314] ?
Response: F

Query: For Cc1ccc(S(=O)(=O)Nc2nc3ccccc3nc2Nc2ccc3nsnc3c2)cc1 , what call appears in the results of this test?
Response: F

Query: Record lookup: outcome of this test for CC(=O)Nc1cccc(-n2c(=O)n(C3CC3)c(=O)c3c(Nc4ccc(I)cc4F)n(C)c(=O)c(C)c32)c1 [TRAMETINIB] ?
Response: F

Query: # outcome recorded in this test, key = COC(=O)[C@@]1(O)C[C@H]2O[C@]1(C)n1c3ccccc3c3c4c(c5c6ccccc6n2c5c31)C(=O)NC4 [K-252A]
Response: T

Query: Answer briefly: the call reported for COc1cc2nccc(Oc3ccc(NC(=O)NC4CC4)c(Cl)c3)c2cc1C(N)=O [LENVATINIB] in this assay.
Response: F

Query: Answer briefly: the call reported for Cc1nc(N)sc1-c1ccnc(Nc2ccc(N3CCOCC3)cc2)n1 [CYC-116] in this assay.
Response: T

Query: Give the logged outcome of this assay for the following compound: CNC(=O)c1ccc(C)c(-n2c(C)cc(OCc3ccc(F)cc3F)c(Br)c2=O)c1 [PH-797804]
Response: F

Query: What did the test return for C[C@@H]1CN(Cc2ccc(F)cc2)[C@@H](C)CN1C(=O)c1cc2c(C(=O)C(=O)N(C)C)cn(C)c2cc1Cl [TALMAPIMOD] ?
Response: F

Query: Short answer needed: outcome of this test for CNC(=O)c1cc(Oc2ccc(NC(=O)Nc3ccc(Cl)c(C(F)(F)F)c3)c(F)c2)ccn1 [REGORAFENIB] ?
Response: F

Query: Could you check what this test reported for CCCS(=O)(=O)Nc1ccc(F)c(C(=O)c2c[nH]c3ncc(-c4ccc(Cl)cc4)cc23)c1F [VEMURAFENIB] ?
Response: F

Query: What call does the record list for CCc1cnn2c(NCc3ccc[n+]([O-])c3)cc(N3CCCC[C@H]3CCO)nc12 [DINACICLIB] ?
Response: F

Query: Which outcome was entered for the compound C[C@@H](c1ccc2nccn2c1)n1nnc2ncc(-c3cnn(C)c3)nc21 [SAVOLITINIB] in this test?
Response: F

Query: Lab log entry: Cn1cc(-c2ccc3nnc(C(F)(F)c4ccc5ncccc5c4)n3n2)cn1 [JNJ-38877605] — outcome as called in the assay?
Response: F

Query: Which outcome was assigned to O=c1sn(-c2cccc3ccccc23)c(=O)n1Cc1ccccc1 [TIDEGLUSIB] in this test?
Response: F

Query: Name the outcome recorded for CN1CC[C@@H](c2c(O)cc(O)c3c(=O)cc(-c4ccccc4Cl)oc23)[C@@H]1CO in the assay.
Response: F

Query: Could you check what this test reported for OCCn1cc(-c2cnc3nnn(Cc4ccc5ncccc5c4)c3n2)cn1 [PF-04217903] ?
Response: F

Query: Give the logged outcome of this assay for the following compound: COc1cc(CCc2cc(NC(=O)c3ccc(N4C[C@@H](C)N[C@@H](C)C4)cc3)n[nH]2)cc(OC)c1 [AZD-4547]
Response: F

Query: # outcome recorded in this test, key = COC(=O)N[C@@H](C)CNc1nccc(-c2cn(C(C)C)nc2-c2cc(Cl)cc(NS(C)(=O)=O)c2F)n1 [ENCORAFENIB]
Response: F

Query: Please share the test call associated with COc1cc2nccc(Oc3ccc(NC(=O)Nc4cc(C)on4)c(Cl)c3)c2cc1OC [TIVOZANIB] .
Response: F

Query: Hello, I am checking results. What call was entered for CNC(=O)CN1CCC(Oc2cc3c(Nc4cccc(Cl)c4F)ncnc3cc2OC)CC1 [SAPITINIB] ?
Response: F

Query: How was Cc1cc2c(F)c(Oc3ncnn4cc(OC[C@@H](C)OC(=O)[C@H](C)N)c(C)c34)ccc2[nH]1 [BRIVANIB ALANINATE] classified in this test?
Response: F
